Values from patent US20230331820A1

target: gE WT: HSV2 gE wildtype ectodomain (HSV2, UniProt P89475 21-416); test: ELISA, supernatant
Measured Property: binding result

# Binder, Measured Property, Result
rows = [
    ("mAb clone 37 (antibody, V domains shown) VH: EVQLQQSGPELVKPGASVKISCKASGYTFTDYNMHWVKQSHGKSLEWIGYIYPYNGGTGYNQKFKTKATLTVDNSSSTAYMELRSLTSEDSAVYYCAIPGYYYAMDYWGQGTSVTVSS VL: DIVLTQSPASLAVSLGQRATISCRASKSVSTSGYSYMHWYQQKPGQPPKLLIYLASNLESGVPARFSGSGSGTDFTLNIHPVEEEDASTYYCHHSRELPRTFGGGTKLEIK", "binding result", "binds"),
    ("mAb clone 39 (antibody, V domains shown) VH: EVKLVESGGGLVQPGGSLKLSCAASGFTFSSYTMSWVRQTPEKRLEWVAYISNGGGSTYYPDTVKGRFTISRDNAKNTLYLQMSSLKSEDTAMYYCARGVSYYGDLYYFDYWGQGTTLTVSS VL: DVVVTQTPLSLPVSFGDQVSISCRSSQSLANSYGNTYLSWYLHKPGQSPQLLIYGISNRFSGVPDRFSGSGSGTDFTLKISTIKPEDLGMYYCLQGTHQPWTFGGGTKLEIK", "binding result", "no binding"),
    ("mAb clone 48 (antibody, V domains shown) VH: QVTLKESGPGILQPSQTLSLTCSFSGFSLSTSGMGVSWIRQPSGKGLEWLAHIYWDDDKRYNPSLKSRLTISKDTSSNQVFLKITSVDTADTATYYCARRGFYYRYDGGRRYYYAMDYWGQGTSVTVSS VL: DILLTQSPAILSVSPGERVSFSCRASQSIGTSIHWYQQGTNGSPRLLIKFASESISGIPSRFSGSGSGTDFTLSINSVESEDIADYYCQQSNSWPLTFGAGTKLELK", "binding result", "binds"),
    ("mAb clone 40 (antibody, V domains shown) VH: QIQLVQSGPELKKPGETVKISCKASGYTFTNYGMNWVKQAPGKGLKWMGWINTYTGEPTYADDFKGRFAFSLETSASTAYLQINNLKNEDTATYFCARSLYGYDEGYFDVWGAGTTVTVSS VL: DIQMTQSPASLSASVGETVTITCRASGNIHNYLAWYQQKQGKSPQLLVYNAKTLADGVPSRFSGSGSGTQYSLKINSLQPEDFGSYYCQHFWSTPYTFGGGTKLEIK", "binding result", "no binding"),
]
